# assayProcedure: Electrical activity assay on cell lines treated with a given drug. DMSO was used as a vehicle and a control, unblinded dofetilide was used as a control.
# conditionLabel: human, ipsc-cm, 10 µM

compound: COc1cc2c(Nc3ccc(Br)cc3F)ncnc2cc1OCC1CCN(C)CC1
APDc: 78.14

compound: CC(C)N(CCC(C(N)=O)(c1ccccc1)c1ccccn1)C(C)C (stereo not given) [DISOPYRAMIDE]
APDc: 68.66

compound: CC(C)NCC(O)c1ccc(NS(C)(=O)=O)cc1 (stereo not given)
APDc: 71.54

compound: COc1ccccc1OCC(O)CN1CCN(CC(=O)Nc2c(C)cccc2C)CC1 (stereo not given)
APDc: 57.23

compound: Cc1cccc(C)c1OCC(C)N (stereo not given)
APDc: 63.09
